tgt: T1, KSRP KH1-4 WT (human, UniProt Q92945)
T1 sequence: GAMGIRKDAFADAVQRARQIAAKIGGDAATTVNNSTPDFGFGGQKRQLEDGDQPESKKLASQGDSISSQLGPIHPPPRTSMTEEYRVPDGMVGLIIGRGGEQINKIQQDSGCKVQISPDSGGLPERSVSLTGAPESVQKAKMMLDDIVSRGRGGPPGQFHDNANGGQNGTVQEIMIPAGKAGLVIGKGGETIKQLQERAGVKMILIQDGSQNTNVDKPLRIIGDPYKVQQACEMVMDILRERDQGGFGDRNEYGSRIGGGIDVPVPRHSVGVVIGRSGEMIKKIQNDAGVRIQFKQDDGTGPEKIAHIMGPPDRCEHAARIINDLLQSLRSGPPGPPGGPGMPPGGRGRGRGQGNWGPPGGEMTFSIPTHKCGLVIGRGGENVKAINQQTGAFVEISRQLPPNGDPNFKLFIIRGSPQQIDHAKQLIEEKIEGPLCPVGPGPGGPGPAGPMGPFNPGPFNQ
measurement description: BLI
readout: Kd
Remember to put the unit after the number in your answer.

Data request, read-out Kd, for GUGUGUUAUUAUUUAUUAUUUAUUUAUUAUUUAUUUAUUCAG (ssRNA) [TNFalpha BLI ARE 42-mer]
3.6 nM
